target: HSP90 (Homo sapiens (Human), UniProt P07900); assay: Hsp90 chaperone assay (refolding of heat-denatured luciferase); assay type: biochemical
pIC50: −log10 of the molar value.
Property: pIC50

Query: pIC50; subject: C#CCCCn1c(Sc2cc(OC)ccc2C(C)=O)nc2c(N)nccc21
5.00 to 6.00

Query: pIC50; subject: C#CCCCn1c(Sc2cccc(OC)c2)nc2c(N)nccc21
≤ 5.00

Query: pIC50; subject: C#CCCCn1c(Sc2cc3c(cc2Cl)OCO3)nc2c(N)nccc21
6.00 to 7.00

Query: pIC50; subject: C#CCCCn1c(Sc2cc(OC)ccc2I)nc2c(N)nccc21
5.00 to 6.00

Query: pIC50; subject: C#CCCCn1c(Sc2cc(OC)ccc2Br)nc2c(N)nccc21
5.00 to 6.00

Query: pIC50; subject: C#CCCCn1c(Sc2cc(OC)ccc2[N+](=O)[O-])nc2c(N)nccc21
≤ 5.00

Query: pIC50; subject: C#CCCCn1c(Sc2cc3c(cc2I)OCO3)nc2c(N)nccc21
6.00 to 7.00

Query: pIC50; subject: C#CCCCn1c(Sc2cc(OC)ccc2Cl)nc2c(N)nccc21
5.00 to 6.00

Origin of measurements: patent US9630965B2
